Source of measurements: patent US8361988B2

target: human dCK (Homo sapiens, UniProt P27707); test: Phosphorylation assay (spectrophotometric coupled-enzyme), human dCK; format: biochemical; conditions: substrate at 100 μM; 37° C.; 1 mM ATP; triplicate
Sequence (P27707 whole entry): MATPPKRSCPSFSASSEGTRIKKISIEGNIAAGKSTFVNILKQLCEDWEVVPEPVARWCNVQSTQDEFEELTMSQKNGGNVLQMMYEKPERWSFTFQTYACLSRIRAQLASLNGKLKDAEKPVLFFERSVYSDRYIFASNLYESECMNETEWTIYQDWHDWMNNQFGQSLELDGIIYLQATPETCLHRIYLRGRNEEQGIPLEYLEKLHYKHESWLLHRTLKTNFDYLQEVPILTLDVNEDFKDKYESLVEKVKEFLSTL
REPORTED_PROPERTY: Human dCK kinase substrate phosphorylation

Sample answers from the record:
- MOLECULE: "COC(=O)c1cn([C@H]2S[C@@H](CO)C(O)[C@@H]2O)nn1 (stereo partly shown) [LCB-1013]"
  TGT: "human dCK (Homo sapiens, UniProt P27707)"
  READING: "<1 10^−3 μmol/min mg"
- MOLECULE: "CC1(CO)CC(n2ccc(N)nc2=O)O[C@@H]1CO (mixture of isomers) [LCB-1012]"
  TGT: "human dCK (Homo sapiens, UniProt P27707)"
  READING: "17 10^−3 μmol/min mg"

Task: Return Human dCK kinase substrate phosphorylation measured with human dCK (Homo sapiens, UniProt P27707) given this molecule: CC1(CO)C[C@H](n2ccc(N)nc2=O)O[C@@H]1CO (mixture of isomers) [LCB-1011]
Result: 12 10^−3 μmol/min mg

Task: Return Human dCK kinase substrate phosphorylation measured with human dCK (Homo sapiens, UniProt P27707) given this molecule: CC1(C(N)=O)CC(n2ccc(N)nc2=O)O[C@@H]1CO (mixture of isomers) [LCB-1018]
Result: 63 10^−3 μmol/min mg

----------
molecular target: Drosophila melanogaster dNK (Drosophila melanogaster, UniProt Q9XZT6); assay: Phosphorylation assay (spectrophotometric coupled-enzyme), D. melanogaster dNK; type: biochemical; conditions: substrate at 100 μM; 37° C.; 1 mM ATP; triplicate
Sequence (Q9XZT6 whole entry): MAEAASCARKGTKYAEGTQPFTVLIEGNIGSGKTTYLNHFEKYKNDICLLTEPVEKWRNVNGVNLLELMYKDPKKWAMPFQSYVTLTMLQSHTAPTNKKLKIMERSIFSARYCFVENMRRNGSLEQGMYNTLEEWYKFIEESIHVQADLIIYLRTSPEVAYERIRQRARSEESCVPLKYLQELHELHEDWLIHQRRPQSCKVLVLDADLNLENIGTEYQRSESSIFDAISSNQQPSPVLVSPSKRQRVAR
REPORTED_PROPERTY: D. melanogaster dNK substrate phosphorylation

Sample answers from the record:
- MOLECULE: "CCOC(=O)[C@@H]1O[C@H](n2cc(F)c(=O)[nH]c2=O)CC1(C)C(=O)OCC (stereo in doubt)"
  TGT: "Drosophila melanogaster dNK (Drosophila melanogaster, UniProt Q9XZT6)"
  READING: "<0.1 10^6 μmol/min mg"
- MOLECULE: "Cc1cn([C@@H]2CC(C)(CO)[C@@H](CO)O2)c(=O)[nH]c1=O (mixture of isomers)"
  TGT: "Drosophila melanogaster dNK (Drosophila melanogaster, UniProt Q9XZT6)"
  READING: "3.7 10^6 μmol/min mg"
- MOLECULE: "CCOC(=O)[C@@H]1O[C@H](n2cc(C)c(=O)[nH]c2=O)CC1(C)C(=O)OCC (stereo partly drawn)"
  TGT: "Drosophila melanogaster dNK (Drosophila melanogaster, UniProt Q9XZT6)"
  READING: "<0.1 10^6 μmol/min mg"

Task: Return D. melanogaster dNK substrate phosphorylation measured with Drosophila melanogaster dNK (Drosophila melanogaster, UniProt Q9XZT6) given this molecule: COC(=O)C1(C)C[C@@H](n2cc(C)c(=O)[nH]c2=O)O[C@@H]1CO (mixture of isomers)
Result: <0.1 10^6 μmol/min mg

Task: Return D. melanogaster dNK substrate phosphorylation measured with Drosophila melanogaster dNK (Drosophila melanogaster, UniProt Q9XZT6) given this molecule: COC(=O)C1(C)CC(n2cc(C)c(=O)[nH]c2=O)OC1CO (racemic)
Result: 2.13 10^6 μmol/min mg

Task: Return D. melanogaster dNK substrate phosphorylation measured with Drosophila melanogaster dNK (Drosophila melanogaster, UniProt Q9XZT6) given this molecule: CCOC(=O)[C@@H]1O[C@H](n2ccc(=O)[nH]c2=O)CC1(C)C(=O)OCC (stereo partly drawn)
Result: <0.1 10^6 μmol/min mg
